- system under test: KRas proteins (Wild type, G12v, G13d, G12a, G12c, G12d, Q61L, and Q61R)
- run description: Dose dependent Bodipy FL-GTP binding assay, KRas multiplex
- Design: species or system Human
- assay conditions: separate KRas proteins, 1 hour at 4° C.; read-out: binding affinities
endpoint name: Kd

Problem: What value of Kd on KRas proteins (Wild type, G12v, G13d, G12a, G12c, G12d, Q61L, and Q61R) does Guanosine 5′-Triphosphate, BODIPY™ FL 2′-(or-3′)-O-(N-(2-Aminoethyl) Urethane), Trisodium Salt [Bodipy FL-GTP] have?
Result: 1 to 50 nM
